Test system: IGROV1 ovarian
Test: NCI-60 one-dose screen, 48 h
Settings: 10 µM unless noted
About 83,000 compounds went through this panel and 20% of them were active in at least one assay; those are over-represented in the sample as a whole. The source made the active and inactive calls. Rule for the calls: active = growth percent below 10; inactive = the rest.
Field 'call' accepts active, inactive

Example entries and their recorded answers appear below.
                                   molecule  answer_label
0  COc1ccc(NC(=O)Nc2ccc(-c3cccnc3)cc2N2CCC(CO)CC2)cc1      inactive
1  CNC(=O)c1cc(Oc2ccc3nc(NC(=O)c4ccc5ncccc5c4)sc3c2)ccn1      inactive
2  Cc1cc(C)c(S(=O)(=O)/N=c2/n(-c3ccccc3)nc3n2CCN3C2=NCCN2)c(C)c1      inactive
3            O=[N+]([O-])c1cc(CCl)ccc1OCCBr      inactive
4  CC(C)(C)OC(=O)N1C=C/C(=C\Cn2cc(-c3ccccc3)nn2)CC1      inactive

Task item: Tell me the recorded outcome of this test for C#CCNC(=O)CC[C@]1(C)[C@H]2CC[C@@H]3[C@@H]([C@@](C)(O)CCC=C(C)C)CC[C@@]3(C)[C@]2(C)CC[C@H]1C(=C)C .
Reply: active

Task item: Recorded test call requested for O=C(Nc1ccccc1)Nc1ccc(C(=O)/C=C/c2ccc(N3CCCC3)cc2)cc1
Reply: inactive

Task item: Please indicate how the test categorized Cc1ccc2c(c1)C(C)Cc1c(Cl)ncnc1N2C (stereo not given) .
Reply: inactive

Task item: Identify the outcome logged in this assay for the molecule shown: CC1=CCc2ccccc21
Reply: inactive

Task item: For Cc1ccc(Cn2c(O)c(N=NC(=O)c3ccc(S(N)(=O)=O)cc3)c3ccccc32)cc1 , which call appears in the assay record?
Reply: inactive

###

Test system: HCT-116 colon
Experiment: NCI-60 one-dose screen, 48 h
Settings: 10 µM unless noted
The panel holds about 83,000 compounds, 20% with a hit somewhere; the sample as a whole holds those more often. Active and inactive are the calls of the source. How the source made its calls: active means growth percent below 10; inactive means the rest.
Hi there, use one of these labels in your reply, thanks! active, inactive

Illustrative cases are given below, each with its answer.
>>> print(df.to_string())
                                   compound  answer_label
0         COc1ccc(C(C(=O)O)c2ccc(OC)cc2)cc1      inactive
1   Nc1ccc2c(c1)Cc1cc(NC(=O)C(F)(F)F)ccc1-2      inactive
2   CCOc1ccc2sc(NS(=O)(=O)c3ccc(N)cc3)nc2c1      inactive
3  N#C/C(C(=O)c1ccccc1)=C1/C(=O)Nc2ccc(Br)cc21      inactive
4  COc1cc(C)cc2oc3oc(=N)c(C(=O)c4ccccc4)cc3c(=O)c12      inactive

Let us examine a further case.
Task item: Can you look up the reported call for COC(=O)[C@]1(C)CC[C@]2(C)CC[C@]3(C)C(=CC(=O)[C@@H]4[C@@]5(C)CCC(=O)NC(C)(C)[C@@H]5CC[C@]43C)[C@@H]2C1 for me?
Reply: active

###

System: NCI/ADR-RES ovarian
Test: NCI-60 one-dose screen, 48 h
Details: 10 µM unless noted
The panel holds about 83,000 compounds, 20% with a hit somewhere; the sample as a whole holds those more often. Activity calls are given as the source filed them. How the source made its calls: active means growth percent below 10; inactive means the rest.
Return exactly one item of TRUE (active), FALSE (inactive)

Would you please look over these solved cases?
>>> df
                                   molecule  answer_label
0  COc1ccc2[nH]c(C(=O)N3CCN(C(=O)OCc4ccc5c(Br)cc(Br)c(O)c5n4)CC3)cc2c1          TRUE
1  CCN(CCNc1ccc(C)c2sc3cc(Cl)ccc3c(=O)c12)CC(C)O (centres undefined)         FALSE
2  O=C(CSc1nccc(Nc2ccc(S(=O)(=O)Nc3ccccn3)cc2)n1)c1ccc(Cl)cc1         FALSE
3  Ic1ccc2[nH]cc(SSc3c[nH]c4ccc(I)cc34)c2c1          TRUE
4  [2H]C1([2H])CCN(C(=O)C2CC2)c2cc(NS(=O)(=O)c3ccc(-c4cccc(C(N)=O)c4)cc3)ccc21         FALSE

Task item: Please let me know the test result on file for CCCSc1nc(N)nc2nc[nH]c12 .
Reply: FALSE

Task item: Please indicate how the test categorized CC(C)(C)c1cc(C(=O)Nc2ccc(C(=O)NCCN)cc2)cc(C(C)(C)C)c1 .
Reply: FALSE

Task item: Tell me the assay call for CC(C)[C@H]1CCC2=C3CC[C@]45OC(=O)[C@@]6(CCC(C)(C)C[C@H]64)CC[C@@]5(C)[C@]3(C)CC[C@@]21C please.
Reply: FALSE

Task item: Any idea what this test logged for O=C(N/N=C/c1ccc([N+](=O)[O-])cc1)c1ccc(Br)o1 ?
Reply: FALSE

Task item: Returns: the outcome recorded for NC(=O)c1c(NC(=O)COC(=O)Cc2ccccc2F)sc2c1CCC2 in this assay.
Reply: FALSE
